target: UniProt Q6IN02; experiment: Peg3 promoter luciferase inhibitors, potency, dose response, cell-based, HeLa, CREF/GAPDH counter-screen panel (AID 624167); conditions: HeLa PEG-Prom luciferase reporter, overnight, CREF/GAPDH counter-screens, mean of runs
Sequence (Q6IN02 whole entry, looked up): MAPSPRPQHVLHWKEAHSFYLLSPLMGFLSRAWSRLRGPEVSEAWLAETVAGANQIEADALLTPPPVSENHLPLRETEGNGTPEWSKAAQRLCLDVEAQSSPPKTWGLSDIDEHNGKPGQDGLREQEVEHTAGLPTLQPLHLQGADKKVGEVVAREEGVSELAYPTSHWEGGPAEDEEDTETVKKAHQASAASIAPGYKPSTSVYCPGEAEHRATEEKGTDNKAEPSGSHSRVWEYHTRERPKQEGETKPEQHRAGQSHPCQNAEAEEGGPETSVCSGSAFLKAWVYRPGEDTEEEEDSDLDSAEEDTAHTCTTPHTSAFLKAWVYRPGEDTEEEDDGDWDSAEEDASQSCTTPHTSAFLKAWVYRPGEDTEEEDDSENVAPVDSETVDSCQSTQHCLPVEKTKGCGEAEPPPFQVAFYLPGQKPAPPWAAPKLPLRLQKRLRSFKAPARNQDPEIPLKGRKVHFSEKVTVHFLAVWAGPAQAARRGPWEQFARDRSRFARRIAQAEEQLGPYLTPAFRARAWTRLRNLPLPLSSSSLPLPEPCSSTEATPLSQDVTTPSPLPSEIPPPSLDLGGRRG
Activity calls are given as the source filed them.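 Rule for the calls: active = mean IC50 for reducing PEG3 promoter reporter signal at or below a set limit, with IC50 above the limit in both counter screens; inactive = the rest, including counter screen hits.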
Possible outcomes: yes (active), no (inactive)

# structure as smiles, group label
rows = [
    ("O=c1c2ccccc2nc(CSc2ncnc3nc[nH]c23)n1-c1ccc(Cl)c(Cl)c1", "no"),
    ("CCSc1nc2ccccc2n1C(=O)/C=C\\c1ccc(OC)c(OC)c1", "yes"),
    ("Cc1cc(C)c2sc(NNC(=O)c3ccc(S(=O)(=O)N4CCc5ccccc5C4)cc3)nc2c1", "yes"),
    ("COc1cccc(-c2sc3ccccc3c2-c2ccc(OCCN(C)C)cc2)c1", "yes"),
    ("O=Cc1cn(Cc2ccc([N+](=O)[O-])cc2)c2ccccc12", "no"),
    ("COc1ccc(-c2cc(C(=O)N(C)Cc3cccc(OC)c3OC)c3ccccc3n2)cc1OC", "no"),
    ("O=C(CCN1C(=O)/C(=C/c2ccc(F)cc2)SC1=S)N[C@@H](CO)Cc1ccccc1", "no"),
    ("Cc1cccc(N=C2Sc3nc4c(C)c(C)ccc4cc3CN2CCN2CCOCC2)c1", "no"),
    ("C=CCN=C1NN=C(c2cc(C)n(CC=C)c2C)CS1", "yes"),
    ("Cc1ccc(C(=O)O/N=C(\\N)c2ccccn2)cc1", "yes"),
]
